Numbers sourced from PubChem BioAssay (NCI).

Test system: A549/ATCC NSCLC
Assay: NCI-60 one-dose screen, 48 h (100 = growth as untreated, 0 = no growth, -100 = all killed)
Details: 10 µM
Compounds without any hit were thinned out: in the full panel of roughly 83,000, 20% have a hit.
Reported growth values follow for various molecules
Measured Property: growth (%)

| Molecule | Measured Property | Result Number |
| --- | --- | --- |
| COc1ccc(-c2nn(-c3cccc(NC(=O)Nc4cc(C(F)(F)F)cc(C(F)(F)F)c4)c3)cc2-c2ccncc2)cc1Cl | growth | 0.691 |
| COc1ccc2c(c1)C(=O)c1c-2c(=O)n(CCCN(C)C)c2cc(OC)c(OC)cc12 | growth | 56.3 |
| O=C(Nc1cccc(-n2cc(-c3ccncc3)c(-c3cc(O)cc(Cl)c3)n2)c1)c1ccc(N2CCOCC2)c(C(F)(F)F)c1 | growth | 9.62 |
| O=C(Nc1cccc(Br)c1)c1cc(=O)[nH]c2ccccc12 | growth | 94.1 |
| Nc1ncn(C2OC(CO)C(O)C2O)c(=O)n1 (stereo not given) | growth | 20.7 |

----------
Tested on: PC-3 prostate
Test: NCI-60 one-dose screen, 48 h (100 = growth as untreated, 0 = no growth, -100 = all killed)
Settings: 10 µM
About 83,000 compounds went through this panel and 20% of them were active in at least one assay; those are over-represented in the sample as a whole.
Categorize each record by its growth using class 0 = under 10%, class 1 = from 10% up to 90%, class 2 = 90% and over

| Compound | Class Label |
| --- | --- |
| COc1ccc(-c2nn(-c3cccc(NC(=O)c4cccc(C(F)(F)F)c4)c3)cc2-c2ccncc2)cc1Cl | class 1 |
| O=[N+]([O-])c1cccc(N=Cc2ccc3c(c2)OCO3)c1 | class 2 |
| O=C(/C(=C/c1ccccc1)CN1CCCCC1)c1ccccc1 | class 0 |
| Cc1cc(C)c(NC(=O)c2sc3nc4c(cc3c2N)C(=O)CCC4)c(C)c1 | class 1 |
| Nc1nccc(Nc2ccccc2)n1 | class 2 |
| COc1cc(NC(=O)CCSc2nc3ccc(C)cc3c(=O)n2Cc2ccccc2)cc(OC)c1OC | class 1 |
| CN(C)CCOc1nc2ccccc2c2c1-c1ccc(Cl)cc1C2=O | class 0 |
| COc1cc(-c2cc(/C=C/C(=O)c3ccc(F)c(F)c3)[nH]n2)cc(OC)c1OC | class 1 |
| O=C(O)CC(Cl)C(Cl)CC(=O)O (stereo unspecified) | class 2 |
| N#CCCN1C/C(=C/c2ccc(Cl)cc2)C(=O)/C(=C/c2ccc(Cl)cc2)C1 | class 0 |

----------
System: HT29 colon
Assay: NCI-60 one-dose screen, 48 h (100 = growth as untreated, 0 = no growth, -100 = all killed)
Details: 10 µM
About 83,000 compounds went through this panel and 20% of them were active in at least one assay; those are over-represented in the sample as a whole.
growth by entry:
Measured Property: growth (%)

| Molecule | Units Symbol | Result Number |
| --- | --- | --- |
| O=C1/C(=C\c2ccccc2)CN(C(=O)c2ccccc2)C/C1=C\c1ccccc1 | % | -48.5 |
| COc1ccc(OC)c2c1C(=O)CC2C (stereo not given) | % | 108 |
| COc1ccc(-c2ccc3cc(C(=O)Nc4ccc(O)c(C(=O)/C=C/c5cc(OC)c(OC)c(OC)c5)c4)ccc3c2)cc1 | % | 95.3 |
| N=C(N)c1ccc(-c2ccc(-c3cccs3)s2)cc1 | % | -53.8 |
| O=C(CC(c1ccccc1)N1CCOCC1)c1ccccc1 (stereo not given) | % | 90.1 |
| CC(C)(C#N)Nc1ccccc1 | % | 99.5 |
| Cc1ccc(S(=O)(=O)Oc2ccc3c4c(c(=O)oc3c2)CCCCC4)cc1 | % | 6.29 |
| COC(=O)C(=C\c1ccc2c(c1)OCO2)/C(=C/c1ccc2c(c1)OCO2)C(=O)OC | % | 88.9 |
| COc1ccc(-n2c(SCc3cc(OC)c(OC)c(OC)c3)nc3ccc(C)cc3c2=O)cc1 | % | 21.9 |
| CCN1CCCC1CNC(=O)c1ncc(-c2ccc(C(F)(F)F)cc2)c(NC2CCCCCC2)n1 (stereo not given) | % | 11.7 |
